Task for the reader: assign each of the following variants its reported abundance fitness.
B1: Neutrophil cytosol factor 2, residues 456 to 514; numbered along this chain, P19878 (parent)
chain: LKKGSQVEALFSYEATQPEDLEFQEGDIILVLSKVNEEWLEGECKGKVGIFPKVFVEDC

Variants of: B1
Assay Procedure: abundance fitness (aPCA) (normalised: wild type 0, dead -1); higher = more abundant; growth selection in yeast, the domain comes from the species named
Condition Summary: Homo sapiens
API doc: respond with a numeric literal and nothing else, no unit.

Request: Field request: abundance fitness | item: LKKGSQVEALFSYEATQPEDLEFQEGDIILVLSKVNEEWLEGECKGHVGIFPKVFVEDC [K47H]
Result: -0.673

Request: LKKGSQVEALFSYEATQPEDLEFQEGDIILVLSKVNEEWLEGECKGKVGIFPKVFVTDC [E57T] ?
Result: 0.487

Request: LKKGSQVEALFSYEATQPEDLEFQEGDIILKLSKVNEEWLEGECKGKVGIFPKVFVEDC [V31K] ?
Result: -0.621

Request: LKKGSQVEALFSYEATQPEDLEFQEGDIILVLSKVNEEWLEGECKGKVGIFPKVGVEDC [F55G] ?
Result: -0.486

Request: LKKGSQVEALFSYEATQQEDLEFQEGDIILVLSKVNEEWLEGECKGKVGIFPKVFVEDC [P18Q] ?
Result: -0.83

Request: LKKGSQVEALFSYEATQPEDLEFQEGDIILVLSKVNEEWLEGECKGKVGIFPIVFVEDC [K53I] ?
Result: -0.865

Request: LKKGSQVEALFSYEATQPEDLEFQEGDIILVLSKVNEEWLEGECKGKVGIFKKVFVEDC [P52K] ?
Result: -0.559

Request: LKKGSQVEALFSYEATQPEDLEFQEGDIILVLSKVNEEWLEGECKGKRGIFPKVFVEDC [V48R] ?
Result: 0.68

Request: LKKGSQVEALFNYEATQPEDLEFQEGDIILVLSKVNEEWLEGECKGKVGIFPKVFVEDC [S12N] ?
Result: -0.206

Request: LKKGSQVEALFSYMATQPEDLEFQEGDIILVLSKVNEEWLEGECKGKVGIFPKVFVEDC [E14M] ?
Result: -0.483

Request: LKKGSQVEALFSYEATQPEDNEFQEGDIILVLSKVNEEWLEGECKGKVGIFPKVFVEDC [L21N] ?
Result: -0.538

Request: LKKGSQVEALFSYEATQPEDLEFQEGDIILVLSKVNEEWLEGECKEKVGIFPKVFVEDC [G46E] ?
Result: -0.189

Request: LKKGSQVEALFSYEATQPEDLEFQEGDIILVLSKVNHEWLEGECKGKVGIFPKVFVEDC [E37H] ?
Result: -0.328

Request: LKKGSQVEALFSYEATQPEDLEFQEGDIILVLSKVNEEWLEGECKGKVPIFPKVFVEDC [G49P] ?
Result: -0.722

Request: YKKGSQVEALFSYEATQPEDLEFQEGDIILVLSKVNEEWLEGECKGKVGIFPKVFVEDC [L1Y] ?
Result: 0.581

Request: LKKGSQVEALFSYEATQPEDLEFQEGDIILVLSKVNEEWLEGACKGKVGIFPKVFVEDC [E43A] ?
Result: -0.035

Request: LKKGSQVEALFSYEATQPEELEFQEGDIILVLSKVNEEWLEGECKGKVGIFPKVFVEDC [D20E] ?
Result: 0.757

Request: LKKGSQVEALFSYEATQPEDLEFQEGDIILVLSKVNEEWLEGKCKGKVGIFPKVFVEDC [E43K] ?
Result: -0.235

Request: LKKGSGVEALFSYEATQPEDLEFQEGDIILVLSKVNEEWLEGECKGKVGIFPKVFVEDC [Q6G] ?
Result: -0.72

Request: LKKGSQVEALFSYEATQPEDLEFQEGDIILVLSKVNEEWLEGECKGKVGIFPKVFVFDC [E57F] ?
Result: -0.607

Request: LKKGSQVERLFSYEATQPEDLEFQEGDIILVLSKVNEEWLEGECKGKVGIFPKVFVEDC [A9R] ?
Result: -0.688

Request: LKKGSQVEALFSYEATQPEDLEFQEGDIILVLSKVNEEWLEPECKGKVGIFPKVFVEDC [G42P] ?
Result: -0.375

Request: LKKGSQVEALFSYEATQPEDLEFQEGDIILVLSKVNEEWLEGECKGKVGIFPTVFVEDC [K53T] ?
Result: -0.707

Request: LKKGSQVEALFSYEATQPEDLEFQEGDIILVLSKVNEPWLEGECKGKVGIFPKVFVEDC [E38P] ?
Result: -0.496

Request: LKKGSQVEALFSYEATQPEDLEFQEGDIILVLSIVNEEWLEGECKGKVGIFPKVFVEDC [K34I] ?
Result: 0.456

Request: LKKGSQVMALFSYEATQPEDLEFQEGDIILVLSKVNEEWLEGECKGKVGIFPKVFVEDC [E8M] ?
Result: 0.684

Request: LKKGSQVEALFSYSATQPEDLEFQEGDIILVLSKVNEEWLEGECKGKVGIFPKVFVEDC [E14S] ?
Result: -0.123

Request: LKKGSQVEALFSYEATQPEDLEFQEGDIILVLSCVNEEWLEGECKGKVGIFPKVFVEDC [K34C] ?
Result: -0.242

Request: LKKGSQVEALFSYEATQPEDLEFQEGDIILVLSKVNEEWLEGECKGKVGIFPKVFVEGC [D58G] ?
Result: 0.392

Request: KKKGSQVEALFSYEATQPEDLEFQEGDIILVLSKVNEEWLEGECKGKVGIFPKVFVEDC [L1K] ?
Result: -0.529

Request: LKKGSQVEALFSYEATQPEDLEFQEGDIISVLSKVNEEWLEGECKGKVGIFPKVFVEDC [L30S] ?
Result: 0.469

Request: LKKGSQVEALFSYEATQPEDLEFQEGDIILVLSKVYEEWLEGECKGKVGIFPKVFVEDC [N36Y] ?
Result: -0.754

Request: LKKGSQVETLFSYEATQPEDLEFQEGDIILVLSKVNEEWLEGECKGKVGIFPKVFVEDC [A9T] ?
Result: -0.476

Request: LKKGSQVEALFSYEATQPEDTEFQEGDIILVLSKVNEEWLEGECKGKVGIFPKVFVEDC [L21T] ?
Result: -0.392
